Molecular target: Ephrin type-A receptor 1 (Homo sapiens) (UniProt P21709)
Sequence (whole entry): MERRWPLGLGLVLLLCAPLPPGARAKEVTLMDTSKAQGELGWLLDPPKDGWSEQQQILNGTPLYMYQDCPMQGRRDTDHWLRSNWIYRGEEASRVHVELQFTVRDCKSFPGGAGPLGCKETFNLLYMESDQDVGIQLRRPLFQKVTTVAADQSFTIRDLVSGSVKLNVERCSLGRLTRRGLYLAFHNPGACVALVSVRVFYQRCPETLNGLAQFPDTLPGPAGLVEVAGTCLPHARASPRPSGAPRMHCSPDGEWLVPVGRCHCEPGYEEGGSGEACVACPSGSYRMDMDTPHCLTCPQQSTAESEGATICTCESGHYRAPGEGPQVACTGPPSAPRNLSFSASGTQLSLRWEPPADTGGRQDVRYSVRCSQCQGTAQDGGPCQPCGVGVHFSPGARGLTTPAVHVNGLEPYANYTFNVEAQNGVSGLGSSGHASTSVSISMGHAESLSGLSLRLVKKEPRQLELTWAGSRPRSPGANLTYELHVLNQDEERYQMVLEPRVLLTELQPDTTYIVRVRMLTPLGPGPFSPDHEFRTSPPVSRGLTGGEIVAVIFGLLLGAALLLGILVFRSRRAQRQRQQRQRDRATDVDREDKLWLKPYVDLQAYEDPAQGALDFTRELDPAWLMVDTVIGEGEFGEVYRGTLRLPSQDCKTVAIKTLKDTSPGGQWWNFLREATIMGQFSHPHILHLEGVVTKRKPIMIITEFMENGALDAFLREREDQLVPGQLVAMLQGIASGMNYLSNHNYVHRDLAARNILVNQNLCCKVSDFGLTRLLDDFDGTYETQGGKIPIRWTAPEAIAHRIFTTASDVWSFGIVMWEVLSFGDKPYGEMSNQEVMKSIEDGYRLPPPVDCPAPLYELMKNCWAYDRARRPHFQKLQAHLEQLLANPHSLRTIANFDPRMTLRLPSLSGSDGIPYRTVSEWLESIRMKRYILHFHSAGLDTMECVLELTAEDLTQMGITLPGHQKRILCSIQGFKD
Settings: at 1 µM
Entry flag: YES if residual activity reaches 60%; NO if it does not.

{"columns": ["molecule", "label.class"],
 "data": [
  ["C[S+]([O-])c1ccc(-c2nc(-c3ccc(F)cc3)c(-c3ccncc3)[nH]2)cc1 (configuration not stated)", "YES"],
  ["CC(C)[C@H](CO)Nc1nc(Nc2cccc(Cl)c2)c2ncn(C(C)C)c2n1", "YES"],
  ["O=[N+]([O-])/C=C/c1ccc2c(c1)OCO2", "YES"],
  ["O=C1Nc2ccc3ncsc3c2/C1=C/c1c[nH]cn1", "NO"],
  ["O=c1[nH]c2ccccc2n1C1CCN(Cc2ccc(-c3nc4cc5[nH]cnc5cc4nc3-c3ccccc3)cc2)CC1", "YES"],
  ["c1cc(-c2cnn3cc(-c4ccc(OCCN5CCCCC5)cc4)cnc23)ccn1", "NO"]
]}

In the following, a different molecule is considered.
Input line: Please check the record "CCn1cnc2c(Nc3cccc(Cl)c3)nc(N[C@@H]3CCCC[C@@H]3N)nc21" and state if its residual activity is at or above 60%.
Output line: NO

* * *

Give residual activity for every item shown.
biological target: MAP kinase-activated protein kinase 2 (Homo sapiens); conditions: at 1 µM
One number for each entry, in %.

Completed entries (count: 2):
{"columns": ["compound.structure.string", "result.unit", "value"],
 "data": [
  ["CC(C)(C)c1cc(C=C(C#N)C#N)cc(Br)c1O", "%", 104],
  ["COc1cc(OC)c(/C=C2\\C(=O)Nc3ccccc32)c(OC)c1", "%", 88]
]}

Please supply residual activity for each of the following items, keeping them in order.
1. O=[N+]([O-])/C=C/c1ccc2c(c1)OCO2
2. COc1cc2ncnc(Nc3ccc(OCc4ccccc4)cc3)c2cc1OC
3. CC(C)[C@H](CO)Nc1nc(Nc2cccc(Cl)c2)c2ncn(C(C)C)c2n1
4. COc1ccc2c(c1)/C(=C/c1cnc[nH]1)C(=O)N2

Output line:
1. 84
2. 124
3. 81
4. 99

Value source: ChEMBL document CHEMBL2218924
